Assay: Confirmatory qHTS for activators (rescue) of SARS-CoV-2 Cytopathic Effect (CPE) (AID 1508606); also: nearly all actives have a fitted effect of over 70% in size
Details: Vero E6 SARS-CoV-2 CPE rescue, viability luminescence; series mostly up to 20 µM
Records with an inconclusive call do not appear. Active and inactive are the calls of the source. Calls follow the shape of the full dose curve.
Valid outcomes are listed here; reply with one: 1 (yes) for active, 0 (no) for inactive

Previously resolved entries follow.
compound: CC(C)c1ccc(NC(=O)C(c2ccccc2)N(C)C(=O)Cc2c[nH]c3ccccc23)cc1 (configuration not stated)
classification: 1 (yes)

compound: O=C(NCc1ccccc1)[C@H](Cc1ccccc1)NC(=O)[C@H]1O[C@@H]1C(=O)NCCc1ccc(O)cc1
classification: 1 (yes)

compound: CCN(CC)CC1CCN(c2ncc3ncnc(Nc4ccc(F)c(Cl)c4)c3n2)CC1
classification: 0 (no)

compound: Cc1cc2cc(Oc3ccnc(Nc4cccc(CS(=O)(=O)NCCN(C)C)c4)n3)ccc2[nH]1
classification: 0 (no)

compound: CCN(CC)CCCS(=O)(=O)N[C@H](CCc1ccccc1)c1nc(Cc2ccc(Br)cc2)no1
classification: 1 (yes)

Write down the call the test reported for this compound. Item: CCCCNc1ncc2c(-c3ccc(CN4CCN(C)CC4)cc3)cn(C3CCC(O)CC3)c2n1 (configuration not stated)
0 (no)

Write down the call the test reported for this compound. Item: `Cc1cc(C)cc(-c2cnc3cc(Cl)c(-c4cccc(O)c4)cc3c2OCCCN)c1`
0 (no)

Write down the call the test reported for this compound. Item: `Cc1ccc(NCCN(C)CCNc2ccnc3cc(Cl)ccc23)c2c(=O)c3ccccc3sc12`
0 (no)

Write down the call the test reported for this compound. Item: `Cc1cc(CN)cc(C)c1NC(=O)c1ccc(-c2cc(Cl)ccc2Cl)o1`
1 (yes)

* * *

Experiment: Primary qHTS for inhibitors of nuclear receptor binding SET domain protein 2 (NSD2) in an isogenic RCH-ACV NSD2 p.E1099K mutant (9B) (AID 1645876); also: nearly all actives have a fitted effect of over 70% in size; also: potency is read from the fitted curve at half-maximal effect
Conditions: RCH-ACV (leukaemia line) NSD2 E1099K (9B) viability, CellTiter-Glo, 72 h; series mostly up to 44.9 µM
Results filed as inconclusive are left out. Active and inactive are the calls of the source. Calls follow the shape of the dose curve; as a rule, active = well fitted inhibition curve with a large enough effect; inconclusive = small, poorly fitted or top-dose-only effect; inactive = flat fitted curve, though single readings scatter.
readoutKind: Potency

Answered examples (4):
molecule: CO/C1=C/C(C)=C\[C@@H](C)[C@@H](O)[C@@H](C)C/C(C)=C\C=C/[C@H](OC)[C@@H]([C@@H](C)[C@@H](O)[C@H](C)[C@@]2(O)C[C@@H](O)[C@H](C)[C@@H](C(C)C)O2)OC1=O
result: 49.4 nM (active)
--
molecule: CN1C(=O)[C@@H](NC(=O)[C@H](CCC(F)(F)F)[C@H](CCC(F)(F)F)C(N)=O)N=C(c2ccccc2)c2ccccc21
result: inactive
--
molecule: Cc1c(N)nc([C@H](CC(N)=O)NC[C@@H](N)C(N)=O)nc1C(=O)N[C@H](C(=O)N[C@@H](C)[C@H](O)[C@@H](C)C(=O)N[C@@H](C(=O)NCCc1nc(-c2nc(C(=O)NCCC[S+](C)C)cs2)cs1)[C@@H](C)O)C(O[C@H]1O[C@H](CO)[C@H](O)[C@@H](O)[C@H]1O[C@H]1O[C@H](CO)[C@@H](O)[C@H](OC(N)=O)[C@@H]1O)c1cnc[nH]1 (stereo not given in full)
result: inactive
--
molecule: C=C(C)[C@@H]1CCC(C)=C[C@H]1c1c(O)cc(CCCCC)cc1O
result: 18600 nM (active)

Next, consider the following molecule.
Identify measured Potency associated with Cc1sc2c(c1C)C(c1ccc(Cl)cc1)=NC(CC(N)=O)c1nnc(C)n1-2 (stereo not given)
105 nM (active)
